The values you see were collected from patent US20230339915A1.

# systemName: NL20 human bronchial epithelial cells expressing human Z-AAT (Homo sapiens (Human), UniProt P01009, E366K)
# Sequence (P01009 25-418 E366K limits assumed): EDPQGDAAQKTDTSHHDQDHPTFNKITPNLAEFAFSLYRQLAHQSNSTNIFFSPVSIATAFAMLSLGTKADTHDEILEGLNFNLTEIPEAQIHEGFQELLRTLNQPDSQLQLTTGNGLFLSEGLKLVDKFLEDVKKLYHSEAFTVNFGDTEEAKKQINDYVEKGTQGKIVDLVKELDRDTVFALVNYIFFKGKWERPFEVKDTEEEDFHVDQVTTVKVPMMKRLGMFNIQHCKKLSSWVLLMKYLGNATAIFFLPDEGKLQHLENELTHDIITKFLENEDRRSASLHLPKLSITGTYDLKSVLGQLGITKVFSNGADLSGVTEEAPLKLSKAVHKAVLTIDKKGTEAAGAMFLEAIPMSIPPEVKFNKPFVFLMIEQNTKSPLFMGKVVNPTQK
# methodSummary: AAT Function Assay (MSD Assay NL20-SI Cell Line)
# condition: functionally active AAT (AAT-hNE complex, MSD) in supernatant of NL20 cells expressing human Z-AAT; read-out: NL20 Functional EC50
observedProperty: EC50

[[record]]
compound = "O=C(O)[C@]1(CF)C[C@@H](c2c(C3CCOCC3)n(-c3ccc(F)c(Cl)c3)c3ccc(O)cc32)C1 [Compound 110]"
observedproperty = "EC50"
observedvalue = "> 2000 nM"

[[record]]
compound = "CC(C)c1c([C@H]2C[C@@H](C(=O)O)C2)c2cc(O)ccc2n1-c1ccc(F)cc1 [Compound 91]"
observedproperty = "EC50"
observedvalue = "> 2000 nM"

[[record]]
compound = "Cc1cc(-n2c(C(C)C)c(-c3ccc(C(=O)O)cc3)c3cc(O)ccc32)ccc1F [Compound 167]"
observedproperty = "EC50"
observedvalue = "< 500 nM"

[[record]]
compound = "Cc1cc(-n2c(C3CCOCC3)c([C@H]3C[C@H](c4nn[nH]n4)C3)c3cc(O)ccc32)ccc1F [Compound 218]"
observedproperty = "EC50"
observedvalue = "> 2000 nM"

[[record]]
compound = "Cc1cc(-n2c([C@@H]3CCOC3)c([C@H]3C[C@@H](C(=O)O)C3)c3cc(O)ccc32)ccc1F [Compound 85]"
observedproperty = "EC50"
observedvalue = "> 2000 nM"

[[record]]
compound = "O=C(O)[C@H]1C[C@@H](c2c(C3CCOCC3)n(-c3ccc(F)cc3)c3ccc(O)cc32)C1 [Compound 46]"
observedproperty = "EC50"
observedvalue = "> 2000 nM"

[[record]]
compound = "Cc1cc(-n2c(C(C)C)c(C3CC(F)(C(=O)O)C3)c3cc(O)ccc32)ccc1F (single isomer, unassigned) [Compound 150]"
observedproperty = "EC50"
observedvalue = "500 to 2000 nM"

[[record]]
compound = "CO[C@]1(C(=O)O)C[C@@H](c2c(C(C)C)n(-c3ccc(F)c(C)c3)c3ccc(O)cc32)C1 [Compound 67]"
observedproperty = "EC50"
observedvalue = "> 2000 nM"

[[record]]
compound = "Cc1cc(-n2c(C3CCOCC3)c([C@H]3C[C@@H](C(=O)O)C3)c3cc(O)ccc32)ccn1 [Compound 143]"
observedproperty = "EC50"
observedvalue = "> 2000 nM"

[[record]]
compound = "Cc1cc(-n2c(C3CCOCC3)c(C3CCCC(C(=O)O)C3)c3cc(O)ccc32)ccc1F (stereo not shown) [Compound 3]"
observedproperty = "EC50"
observedvalue = "500 to 2000 nM"

[[record]]
compound = "CC(C)c1c([C@H]2C[C@H](C(=O)O)C2)c2cc(O)ccc2n1-c1ccc(F)c(Cl)c1 [Compound 77]"
observedproperty = "EC50"
observedvalue = "500 to 2000 nM"

[[record]]
compound = "Cc1cc(-n2c(C(C)C)c([C@H]3C[C@@H](C(=O)O)C3)c3cc(O)ccc32)ccc1F [Compound 146]"
observedproperty = "EC50"
observedvalue = "500 to 2000 nM"

[[record]]
compound = "Cc1cc(-n2c(C(C)C)c(CC(C)C(=O)O)c3cc(O)ccc32)ccc1F (single isomer, unassigned) [Compound 101]"
observedproperty = "EC50"
observedvalue = "> 2000 nM"

